Test system: NCI-H522
procedure_text: NCI tumour cell line growth inhibition, 48 h
Activity calls are given as the source filed them. Cut-off read from the data, not from the text of the source: active = GI50 up to about 1.1 µM and inactive = higher.
# GI50 annotations
assay_readout: GI50

>>> result("CC(C)=CCC/C(=C/CC/C(=C\\CCc1ccoc1)C(=O)O)C(=O)O")
"> 100 µM (inactive)"
>>> result("O=C(Nc1ccc(-c2cn3ccccc3n2)cc1)c1cc(Br)ccc1O")
"> 100 µM (inactive)"
>>> result("CCOC(=O)c1cn2c(n1)sc1cc(F)ccc12")
"> 100 µM (inactive)"
>>> result("N=C(N)SCc1ccc(Cl)c2ccccc12.O=[N+]([O-])c1c(O)c(Cl)cc(Cl)c1Cl")
"4.56 µM (inactive)"
>>> result("COc1ccc(C2OC2C(=O)C23CC4CC(CC(C4)C2)C3)cc1 (stereo unspecified)")
"45.5 µM (inactive)"
>>> result("C=CCO[C@H]1CC[C@@]2(C)C(CC[C@]3(C)C2CC=C2[C@@H]4[C@@H](C)C(C)CC[C@]4(C(=O)O)CCC23C)C1(C)C (stereo partly specified)")
"13.2 µM (inactive)"
